System: Mucor hiemalis DSM2656
Test: MIC serial dilution assay
Assay type: cell-based
Set-up: key: -: no inhibition observed under test conditions
Conditions: highest concentration 67 or 100 µg/mL
MEASUREMENT_KIND: MIC

* CC(C)(O)C1CCC23CC4=C(CC2C(O)(CO)CCC13)C(=O)C=CC4=O (stereo not drawn) [Compound 11, 4-Hydroxypleurogrisein] | -
* C[C@@H]1CO[C@@H]2C3=C(C(=O)C=CC3=O)[C@@H](O)[C@H]3[C@H](C(=O)O)CC[C@H]4[C@@H]1CC[C@@]324 [Compound 6, 14-Hydroxy-dihydropleurotinic acid] | -
* C=C1CO[C@@H]2c3c(O)ccc(O)c3[C@H]3OC(=O)[C@@H]4CC[C@H]5[C@@H]1CC[C@@]25[C@@H]34 | -

----------
Test system: Rhodotorula glutinis DSM10134
Experiment: MIC serial dilution assay
Assay type: cell-based
Settings: highest concentration 67 or 100 µg/mL, read-out: MIC
Some compounds, each annotated with its measured MIC.
Note: a bare number is incomplete; add the unit.

Recorded results for 3 compounds are shown here.
• C[C@@H]1CO[C@@H]2C3=C(C(=O)C=CC3=O)[C@H]3OC(=O)[C@@H]4CC[C@H]5[C@@H]1CC[C@@]25[C@@H]34 = 16.7 µg/mL
• CC1COC2C3=C(CC4C(C(=O)O)CCC5C1(O)CCC245)C(=O)C=CC3=O (stereo not shown) [Compound 5, 3-Hydroxy-dihydropleurotinic acid] = 33.3 µg/mL
• C[C@@H]1CO[C@@H]2c3c(O)ccc(O)c3[C@H]3OC(=O)[C@@H]4CC[C@H]5[C@@H]1CC[C@@]25[C@@H]34 [Compound 2, leucopleurotin, reference compound] = 33.3 µg/mL

Sure, the documented MIC for CC1COC2C3=C(CC4C(C(=O)O)CCC5C1CCC245)C(=O)C=CC3=O (stereo not shown) [Compound 3, dihydropleurotinic acid, reference compound] is 33.3 µg/mL

Origin of values: paper PMC6222660
